system.name: Glucocorticoid receptor (Homo sapiens) (UniProt P04150)
Sequence (P04150 whole entry, looked up): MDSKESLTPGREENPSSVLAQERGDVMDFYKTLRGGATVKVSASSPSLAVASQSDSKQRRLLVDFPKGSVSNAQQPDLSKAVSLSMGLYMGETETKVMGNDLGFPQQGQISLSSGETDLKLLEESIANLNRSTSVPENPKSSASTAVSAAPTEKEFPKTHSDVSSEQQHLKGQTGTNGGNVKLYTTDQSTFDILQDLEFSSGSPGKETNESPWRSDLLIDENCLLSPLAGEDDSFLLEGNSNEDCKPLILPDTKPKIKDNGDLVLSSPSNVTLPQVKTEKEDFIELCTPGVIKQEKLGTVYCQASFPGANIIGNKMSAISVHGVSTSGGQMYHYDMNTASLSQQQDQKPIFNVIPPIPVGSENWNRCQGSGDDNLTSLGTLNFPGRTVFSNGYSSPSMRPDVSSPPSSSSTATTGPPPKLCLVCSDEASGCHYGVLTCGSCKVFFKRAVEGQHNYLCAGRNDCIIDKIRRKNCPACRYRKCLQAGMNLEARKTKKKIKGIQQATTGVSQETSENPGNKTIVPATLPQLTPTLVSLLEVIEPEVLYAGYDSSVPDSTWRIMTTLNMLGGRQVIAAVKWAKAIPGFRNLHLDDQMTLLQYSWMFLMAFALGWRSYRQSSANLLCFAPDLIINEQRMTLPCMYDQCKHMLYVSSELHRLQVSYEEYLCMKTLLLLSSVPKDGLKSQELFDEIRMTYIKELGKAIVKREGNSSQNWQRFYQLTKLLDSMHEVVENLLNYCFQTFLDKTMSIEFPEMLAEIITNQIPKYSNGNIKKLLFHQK
assay.summary: GR-GFP Redistribution (AID 450)
experimental.setup: U2OS GR-GFP nuclear translocation, laser cytometry, 2 h
Calls of active or inactive are those of the source.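 The calls were made as follows: active = compounds whose dose series gives a full or clear partial fitted curve of increased nuclear translocation; inconclusive = weak partial curve or effect only at the top dose; inactive = no dose-dependent translocation response.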
Your response should consist of one outcome taken from active, inactive

compound.structure.string	group
O=C1C=CC(=O)c2c1ccc1c2ccc2ccccc21	inactive

Call for entry `COc1c2c(nc3ccccc13)O[C@H]([C@@](C)(O)CO)C2` :
inactive

---

Tested on: PAD
assay.summary: qHTS profiling for inhibitors of Plasmodium falciparum proliferation (AID 504749); also: nearly all actives have a fitted effect of over 60% in size
experimental.setup: P. falciparum in erythrocytes, SYBR Green DNA, 72 h; series mostly up to 12.8 µM
Procedure: NIH National Institute of Allergy and Infectious Diseases [NIAID] NIH Chemical Genomics Center [NCGC] […] Because mature erythrocytes lack DNA, only Plasmodium-derived DNA is detected. NCGC Assay Protocol Summary: The SYBR Green viability assay was adapted from a method described previously (Plouffe et al., 2008). […] The following morning, fluorescence intensity at 485(14) nm excitation and 535(25) nm emission wavelengths was measured on an EnVision (Perkin Elmer) plate reader. […]
Results filed as inconclusive are left out. The source made the active and inactive calls. The call rests on the fitted dose curve; in most records, active means well fitted inhibition curve with a large enough effect; inconclusive means small, poorly fitted or top-dose-only effect; inactive means flat fitted curve, though single readings scatter.
reported.metric: outcome

Take a look at these entries with their results.
compound	system.name	outcome
C#C[C@]1(O)CC[C@@H]2[C@H]3CCC4=CCCC[C@@H]4[C@@H]3CC[C@@]21C	PAD	inactive
CN1CCO[C@H](c2ccccc2)c2ccccc2C1	PAD	inactive
C[C@@]12CCC(=O)C=C1C=CC1C2CC[C@]2(C)C1CC[C@@]21CCC(=O)O1 (stereo not given in full)	PAD	inactive
CCc1c(C)[nH]c2c1C(=O)[C@H](CN1CCOCC1)CC2	PAD	inactive

The compound identified as `CC(C)(C)NC[C@H](O)COc1cccc2c1C[C@@H](O)[C@@H](O)C2` registered its outcome at inactive

---

Test system: TAB109
assay.summary: qHTS profiling for inhibitors of Plasmodium falciparum proliferation (AID 504749); also: nearly all actives have a fitted effect of over 60% in size
experimental.setup: P. falciparum in erythrocytes, SYBR Green DNA, 72 h; series mostly up to 12.8 µM
Records with an inconclusive call do not appear. Active and inactive are the calls of the source. Calls come from the whole dose curve; as a rule, active = well fitted inhibition curve with a large enough effect; inconclusive = small, poorly fitted or top-dose-only effect; inactive = flat fitted curve, though single readings scatter. Peptide text beside a SMILES is read from it.
Response enum: active, inactive

For orientation, consider the following solved cases.
compound	group
CC[C@@H]1OC(=O)[C@H](C)[C@H](O[C@@H]2C[C@](C)(OC)[C@H](O)[C@H](C)O2)[C@H](C)[C@H](O[C@@H]2O[C@@H](C)C[C@@H](N(C)C)[C@@H]2O)[C@](C)(O)C[C@H](C)C(=NOCOCCOC)[C@H](C)[C@H](O)[C@]1(C)O	inactive
COC(=O)C(Cc1ccccc1)NC(=O)C(N)CC(=O)O (stereo not drawn) (H-Asp-Phe-OMe; configuration not given here)	inactive
C[C@@H](C(=O)O)c1ccc(C(=O)c2ccccc2)s1	inactive
Clc1ccc([C@H](Cn2ccnc2)OCc2c(Cl)cccc2Cl)c(Cl)c1	active
CCOC(=O)[C@H](CCc1ccccc1)N[C@@H](C)C(=O)N1[C@H](C(=O)O)C[C@H]2CCC[C@@H]21	inactive
C[C@]1(c2ccccc2)OC(C(=O)O)=CC1=O	inactive
CN(C)CCCOC1C(C(O)CO)OC2OC(C)(C)O[C@@H]21 (stereo partly specified)	inactive
CC(=O)O[C@H]1C[C@@]2(C)[C@H](C[C@@H](O)[C@H]3[C@@]4(C)CC[C@@H](O)[C@@H](C)[C@H]4CC[C@@]32C)C1=C(CCC=C(C)C)C(=O)O	inactive

Lab log entry: `CC(=O)O[C@]1(C(C)=O)CC[C@@H]2[C@@H]3C=C(C)C4=CC(=O)CC[C@@]4(C)[C@H]3CC[C@]21C` — outcome as called in the assay?
inactive

---

system.name: Cytochrome P450 3A4 (Homo sapiens) (UniProt P08684)
Sequence (P08684 whole entry, looked up): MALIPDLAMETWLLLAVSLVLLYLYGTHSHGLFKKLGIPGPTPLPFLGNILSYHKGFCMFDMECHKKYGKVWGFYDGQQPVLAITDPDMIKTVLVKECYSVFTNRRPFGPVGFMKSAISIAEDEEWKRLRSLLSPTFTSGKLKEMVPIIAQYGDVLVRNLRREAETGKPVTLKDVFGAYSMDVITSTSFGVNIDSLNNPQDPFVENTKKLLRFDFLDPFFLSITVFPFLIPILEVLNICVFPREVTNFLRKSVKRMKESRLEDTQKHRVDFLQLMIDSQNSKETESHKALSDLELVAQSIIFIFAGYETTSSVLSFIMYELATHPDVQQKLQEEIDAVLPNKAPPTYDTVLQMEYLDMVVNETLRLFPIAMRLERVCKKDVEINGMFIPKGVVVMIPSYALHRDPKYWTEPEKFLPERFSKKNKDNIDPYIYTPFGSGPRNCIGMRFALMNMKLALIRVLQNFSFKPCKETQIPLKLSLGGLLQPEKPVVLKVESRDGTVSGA
assay.summary: qHTS Assay for Inhibitors and Substrates of Cytochrome P450 3A4 (AID 884); also: % is scaled to controls: 0 for no effect and ±100 for the full control effect; nearly all actives have a fitted effect of over 50% in size
experimental.setup: recombinant CYP3A4, Luciferin-PPXE luminescence; series mostly up to 57.1 µM
Results filed as inconclusive are left out. Calls of active or inactive are those of the source. Calls come from the whole dose curve; as a rule, active = well fitted inhibition curve with a large enough effect; inconclusive = small, poorly fitted or top-dose-only effect; inactive = no such curve, though single readings can be large or run the other way.
Response enum: active, inactive

Any idea what this test logged for CC1CCC2(OC1)OC1CC3C4CC[C@@H]5CC(O)CC[C@@]5(C)C4CC(=O)[C@]3(C)C1C2C (stereo partly drawn) ?
inactive

Recorded test call requested for CC(C)c1c(O)c(-c2cc3c(c(C(C)C)c2O)CCC2C(C)(C)CCC[C@@]32C)cc2c1CCC1C(C)(C)CCC[C@@]21C (stereo partly drawn)
inactive

Returns: the outcome recorded for CCC1OC(=O)C(C)[C@@H](O[C@H]2C[C@@](C)(OC)C(O)C(C)O2)C(C)[C@@H](O[C@@H]2OC(C)CC(N(C)C)C2O)[C@](C)(O)CC(C)/C(=N\OCOCCOC)[C@H](C)C(O)[C@]1(C)O (stereo partly drawn) in this assay.
inactive

---

system.name: Rap guanine nucleotide exchange factor 3 (Homo sapiens)
assay.summary: Counterscreen qHTS for agonist of cAMP-regulated guanine nucleotide exchange factor 3 (EPAC1) (AID 1645889); also: % of control where 0% means no effect; nearly all actives have a fitted effect of over 40% in size
experimental.setup: EPAC1 Rap1B-BODIPY-GDP exchange, fluorescence; series mostly up to 154 µM
Text: Assay Provider (PI): Xiaodong Cheng Ph.D. The University of Texas Medical Branch, […], TX MLPCN Grant: NS066510 In multi-cellular eukaryotic organisms, the effects of cAMP are transduced by two ubiquitously-expressed intracellular cAMP receptors, the classic protein kinase A/cAMP-dependent protein kinase (PKA/cAPK) and the more recently discovered exchange protein directly activated by cAMP/cAMP-regulated guanine nucleotide exchange factor (EPAC/cAMP-GEF). […]
Inconclusive results are not listed. Activity calls are given as the source filed them. Calls come from the whole dose curve; as a rule, active = well fitted activation curve with a large enough effect; inconclusive = small, poorly fitted or top-dose-only effect, or another doubt; inactive = no such curve, though single readings can be large or run the other way.
reported.metric: activation

Before answering, review these 4 worked examples.
compound.structure.string	reported.metric	reading
O=C(Cn1c(=O)oc2cc(S(=O)(=O)N3CCCCC3)ccc21)N1CCc2ccccc2C1	activation	inactive
C=CCCCN(Cc1ccccc1)S(=O)(=O)c1ccccc1Br	activation	12.4% [at 30.8 µM] (inactive)
CN(C)CCCN(C(=O)COc1ccc(Cl)cc1)c1nc2cc3c(cc2s1)OCCO3	activation	inactive
Cc1ccc(NC(=O)CSc2ncn[nH]2)cc1C	activation	inactive

Could you now look at the following compound, please?
GET /values?item= `C[C@@H](NC(=O)C1(c2ccccc2)CCN(C(=O)OC(C)(C)C)CC1)C(=O)N[C@@H](C(=O)O)c1ccccc1` &system= Rap guanine nucleotide exchange factor 3 (Homo sapiens) returns activation: inactive

---

system.name: Rap guanine nucleotide exchange factor 3 (Homo sapiens)
assay.summary: Counterscreen qHTS for antagonist of cAMP-regulated guanine nucleotide exchange factor 3 (EPAC1) (AID 1645888);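 also: fluorescence loss as bound BODIPY-GDP is released from Rap1B; % of control where 0% means no effect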
experimental.setup: Rap1B-BODIPY-GDP nucleotide exchange, fluorescence; series mostly up to 154 µM
Results filed as inconclusive are left out. Activity calls are given as the source filed them. Calls follow the shape of the dose curve; as a rule, active = well fitted inhibition curve with a large enough effect; inconclusive = small, poorly fitted or top-dose-only effect; inactive = no such curve, though single readings can be large or run the other way.
reported.metric: activity change, negative = inhibition

compound	system.name	activity change, negative = inhibition
CS(=O)(=O)c1cccc(C(=O)OCC(=O)c2ccc3c(c2)OCCO3)c1	Rap guanine nucleotide exchange factor 3 (Homo sapiens)	-4.85% [at 30.8 µM] (inactive)
CCc1cccc(C)c1Nc1c(-c2cccs2)nc2ncccn12	Rap guanine nucleotide exchange factor 3 (Homo sapiens)	inactive
COc1ccc(N(C)S(=O)(=O)c2cccc3nsnc23)cc1	Rap guanine nucleotide exchange factor 3 (Homo sapiens)	inactive
Cc1sc(NC(=O)C2=COCCO2)nc1-c1ccc(Cl)cc1	Rap guanine nucleotide exchange factor 3 (Homo sapiens)	inactive
CCOC(=O)N1CCN(C(=O)c2cc(S(=O)(=O)N3CCc4ccccc43)ccc2OC)CC1	Rap guanine nucleotide exchange factor 3 (Homo sapiens)	inactive

Summary: COc1ccc(C(CC(=O)N2CCOCC2)c2c(OC)cc(OC)c3c(-c4ccccc4)cc(=O)oc23)cc1 (stereo unspecified) , Rap guanine nucleotide exchange factor 3 (Homo sapiens), activity change, negative = inhibition = inactive

Entry Cc1ccc2c(c1)C=CC(C#N)N2C(=O)c1ccccc1 (stereo unspecified) under Rap guanine nucleotide exchange factor 3 (Homo sapiens) had activity change, negative = inhibition of inactive

Lab entry: Rap guanine nucleotide exchange factor 3 (Homo sapiens) assay, compound `CCCN(CCC)Cc1cc(=O)oc2cc(C)cc(C)c12` , activity change, negative = inhibition = inactive

Item `COc1ccc(-c2nnc(SCC(=O)c3ccco3)n2-c2ccccc2)cc1` was tested on Rap guanine nucleotide exchange factor 3 (Homo sapiens); the reported activity change, negative = inhibition is -13.6% [at 30.8 µM] (inactive)

Item `COc1cc(/C=C2/C(=O)NN(c3ccc(Cl)cc3)C2=O)ccc1OC(=O)c1ccco1` ; assay system Rap guanine nucleotide exchange factor 3 (Homo sapiens); activity change, negative = inhibition reported as inactive

GET /values?item= CC(OC(=O)Cc1c[nH]c2ccccc12)C(=O)Nc1ccccc1F (stereo unspecified) &system= Rap guanine nucleotide exchange factor 3 (Homo sapiens) returns activity change, negative = inhibition: inactive

---

system.name: Cytochrome P450 1A2 (Homo sapiens) (UniProt P05177)
Sequence (P05177 whole entry, looked up): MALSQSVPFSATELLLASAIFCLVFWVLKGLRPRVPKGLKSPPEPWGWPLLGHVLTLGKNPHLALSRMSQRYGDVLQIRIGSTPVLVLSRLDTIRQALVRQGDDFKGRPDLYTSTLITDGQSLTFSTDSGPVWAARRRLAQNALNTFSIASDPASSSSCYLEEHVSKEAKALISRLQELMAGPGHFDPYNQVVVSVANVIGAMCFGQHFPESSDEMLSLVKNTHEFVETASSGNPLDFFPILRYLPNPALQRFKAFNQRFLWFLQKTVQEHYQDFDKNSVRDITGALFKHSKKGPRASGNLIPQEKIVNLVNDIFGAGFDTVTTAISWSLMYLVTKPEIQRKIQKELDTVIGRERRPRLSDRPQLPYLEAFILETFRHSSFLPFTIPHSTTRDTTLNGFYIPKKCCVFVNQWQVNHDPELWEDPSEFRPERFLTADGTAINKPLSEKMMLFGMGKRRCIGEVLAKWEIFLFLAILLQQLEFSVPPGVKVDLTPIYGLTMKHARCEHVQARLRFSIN
assay.summary: p450-cyp1a2 (AID 410)
experimental.setup: recombinant CYP1A2, luciferin-ME demethylation, luminescence; series mostly up to 25.6 µM
Results filed as inconclusive are left out. The source made the active and inactive calls. The call rests on the fitted dose curve.
Mark one answer only. Choices: active, inactive

compound	system.name	group
O=C(/C=C\C=C/c1ccc2c(c1)OCO2)N1CCCCC1	Cytochrome P450 1A2 (Homo sapiens) (UniProt P05177)	active
Cc1onc(-c2c(F)cccc2Cl)c1C(=O)N[C@H]1C(=O)N2[C@H]1SC(C)(C)[C@H]2C(=O)O	Cytochrome P450 1A2 (Homo sapiens) (UniProt P05177)	inactive
O=C(O)[C@@H](O)[C@@H](O)[C@@H](O)[C@@H](O)C(=O)O (tested in a mixture with another compound)	Cytochrome P450 1A2 (Homo sapiens) (UniProt P05177)	inactive

GET /call?item= `C[C@H](N[C@@H](C)COc1ccccc1)[C@H](O)c1ccc(O)cc1` returns the recorded outcome of this test.
active

Returns: the outcome recorded for `CN(C)CCO[C@@H](c1ccc(Cl)cc1)c1ccccn1` in this assay.
inactive

Record lookup: outcome of this test for `NS(=O)(=O)c1cc2c(cc1Cl)N[C@@H](CC1CCCC1)NS2(=O)=O` ?
inactive

# lookup: test call for `Nc1c2ccccc2nc2c(O)cccc12`
active

What classification did `CC(=O)N(C[C@@H](O)CO)c1c(I)c(C(=O)NC[C@@H](O)CO)c(I)c(C(=O)NC[C@@H](O)CO)c1I` end up with in this test?
inactive

Call for entry `CN(C)c1ccc(O)c2c1C[C@H]1C[C@H]3[C@@H](N(C)C)C(=O)C(C(N)=O)=C(O)[C@]3(O)C(=O)C1=C2O` :
inactive

Reference source: PubChem BioAssay (NCATS)
